Below: a set of entries, each annotated with reported IC50.
Biological target: MHC DR2 (DRB1*1501/DRA*0101) (Homo sapiens, UniProt P01903+P01911)
Construct: endogenous in cells
Experiment: HLA II Binding Assay (competition with biotinylated reference peptide)
Settings: purified HLA-DR, biotinylated reference compound for DRB1*1501, 37° C. 24 h to 72 h; read-out: Inhibition of peptide binding IC50 (against MHC DR2 (DRB1*1501/DRA*0101))
Square brackets hold non-standard residues; d marks the D form. Peptide text beside a SMILES is read from it. * marks the point of attachment. Tic = O=C(O)[C@@H]1Cc2ccccc2CN1; Chg = N[C@H](C(=O)O)C1CCCCC1; NHPhenethyl = c1ccc(CCN*)cc1
property: IC50

INSERT INTO results (compound, property, testvalue) VALUES
  ('CC(=O)N[C@H](C(=O)N[C@H](C(=O)N[C@@H](CCCNC(=N)N)C(=O)N1Cc2ccccc2C[C@H]1C(=O)NCCc1ccccc1)C1CCCCC1)C(C)C [AcV(Chg)R(Tic)(phenethylamide)] (Ac-V[Chg]R[Tic]-NHPhenethyl)', 'IC50', '100 to 1000 nM'),
  ('CC(=O)N[C@H](C(=O)N[C@H](C(=O)N[C@@H](CCCNC(=N)N)C(=O)N1Cc2ccccc2C[C@H]1C(=O)N[C@@H](Cc1ccccc1)C(N)=O)C1CCCCC1)[C@@H](C)O [Ac(Thr)(Chg)R(Tic)F] (Ac-T[Chg]R[Tic]F-NH2)', 'IC50', '10 to 100 nM');
